Data origin, for the record: patent US20230303649A1

Reported CD8 naïve EC50 (nM), STAT5 phosphorylation is given for each of the following binders.
# target_under_test: T1, IL-2R on human primary T cells (human, UniProt P01589 22-272; P14784 27-551; P31785 23-369)
# T1 sequence (looked up) 1: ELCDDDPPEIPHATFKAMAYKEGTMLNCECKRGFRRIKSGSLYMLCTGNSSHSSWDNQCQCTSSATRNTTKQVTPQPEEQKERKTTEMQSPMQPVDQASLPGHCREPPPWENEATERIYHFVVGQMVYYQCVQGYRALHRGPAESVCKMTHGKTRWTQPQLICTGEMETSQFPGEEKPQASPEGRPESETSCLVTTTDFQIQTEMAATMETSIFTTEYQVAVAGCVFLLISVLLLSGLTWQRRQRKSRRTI
# T1 sequence (looked up) 2: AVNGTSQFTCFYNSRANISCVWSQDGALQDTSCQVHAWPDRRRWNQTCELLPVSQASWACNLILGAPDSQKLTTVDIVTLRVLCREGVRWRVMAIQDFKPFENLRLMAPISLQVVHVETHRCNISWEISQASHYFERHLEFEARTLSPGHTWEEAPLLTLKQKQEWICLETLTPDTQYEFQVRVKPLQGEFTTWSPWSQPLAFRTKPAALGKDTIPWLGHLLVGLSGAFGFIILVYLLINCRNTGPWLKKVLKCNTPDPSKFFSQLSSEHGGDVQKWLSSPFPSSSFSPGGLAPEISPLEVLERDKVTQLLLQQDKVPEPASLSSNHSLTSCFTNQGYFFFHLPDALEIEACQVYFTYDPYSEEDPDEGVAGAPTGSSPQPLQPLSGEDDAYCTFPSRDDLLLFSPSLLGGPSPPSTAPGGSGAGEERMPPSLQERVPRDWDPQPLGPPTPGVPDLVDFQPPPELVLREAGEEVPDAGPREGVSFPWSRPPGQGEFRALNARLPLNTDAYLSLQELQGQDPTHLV
# T1 sequence (looked up) 3: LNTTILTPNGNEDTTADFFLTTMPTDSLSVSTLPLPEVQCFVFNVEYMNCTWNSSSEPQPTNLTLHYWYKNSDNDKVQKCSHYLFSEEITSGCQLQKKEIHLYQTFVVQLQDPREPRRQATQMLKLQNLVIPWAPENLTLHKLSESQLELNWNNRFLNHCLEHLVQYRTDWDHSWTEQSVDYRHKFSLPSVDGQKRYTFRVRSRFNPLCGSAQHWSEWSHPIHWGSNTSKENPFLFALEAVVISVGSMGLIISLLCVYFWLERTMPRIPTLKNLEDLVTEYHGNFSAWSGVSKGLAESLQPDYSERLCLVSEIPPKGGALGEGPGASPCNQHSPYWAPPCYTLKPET
# assay_method_text: cell-based or functional assay
Report the figure in nM without appending any unit label.

Value of measured CD8 naïve EC50 (nM), STAT5 phosphorylation for the entry SEQ ID NO 14 (ligand) APTSSSTKKTQLQLEHLLLDLQMILNGINNHKNPRLTRMLTFKFYMPKKATELKHLQCLEEELKPLEEVLNLAPSKNFHLRPRDLISNINVIVLELKGSETTFMCEYADETATIVEFLNRWITFSQSIISTLT : 444

Value of measured CD8 naïve EC50 (nM), STAT5 phosphorylation for the entry SEQ ID NO 30 (ligand) APTSSSTKKTQLQLEHLLLDLQMILNGINNHKNPKLTRMLTFKFYMPKKATELKHLQCLEEELKPLEEALNLAPSKNFHLRPRDLISDINVIVLELKGSETTFMCEYADETATIVEFLNRWITFSQSIISTLT : 10000

Value of measured CD8 naïve EC50 (nM), STAT5 phosphorylation for the entry SEQ ID NO 25 (ligand) APTSSSTKKTQLQLEHLLLDLQMILNGINNHKNPRLTRMLTFKFYMPKKATELKHLQCLEEELKPLEEALRLAPSKNFHLRPRDLISNINVIVLELKGSETTFMCEYADETATIVEFLNRWITFSTSIISTLT : 10000

Value of measured CD8 naïve EC50 (nM), STAT5 phosphorylation for the entry SEQ ID NO 17 (ligand) APTSSSTKKTQLQLEHLRLDLQMILNGINNYKNPKLTRMLTFKFYMPKKATELKHLQCLEEELKPLEEVLNLAQSKNFHFDPRDVVSNINVFVLELKGSETTFMCEYADETATIVEFLNRWITFSTSIISTLT : 10000

Value of measured CD8 naïve EC50 (nM), STAT5 phosphorylation for the entry SEQ ID NO 27 (ligand) APTSSSTKKTQLQLEHLLLDLQMILNGINNHKNPRLTRMLTFKFYMPKKATELKHLQCLEEELKPLEEVLRLAPSKNFHLRPRDLISNINVIVLELKGSETTFMCEYADETATIVEFLNRWITFSTSIISTLT : 10000
